These entries and their values trace back to BigSolDB 2.1.

conditions: in isopropanol, 273.15 K
observation.type: solubility (mole fraction)
Form rule: numeric answer, no unit written next to it.

Ask: Report solubility (mole fraction) for "C#C[C@]1(O)CC[C@H]2[C@@H]3CCC4=CC(=O)CC[C@@H]4[C@H]3C(=C)C[C@@]21CC" please.
Result: 0.00463

###

conditions: in ethyl acetate, 278.15 K
observation.type: solubility (mole fraction)
Form rule: numeric answer, no unit written next to it.

Ask: Report solubility (mole fraction) for "C#C[C@]1(O)CC[C@H]2[C@@H]3CCC4=CC(=O)CC[C@@H]4[C@H]3C(=C)C[C@@]21CC" please.
Result: 0.022
